- assay: Viability qHTS for spleen associated tyrosine kinase inhibitor (SYKi) drug resistant MV4-11 cells (AID 1963824); note: nearly all actives have a fitted effect of over 35% in size
- condition.info: SYKi-resistant MV4-11 viability, CellTiter-Glo, 72 h; series mostly up to 45 µM
- Experimental: Department of Medicine, Hematology/Oncology University Hospital Frankfurt, Germany. Trials have shown promising clinical activity of the selective SYK inhibitor entospletinib in patients with high expressing HOXA9/MEIS1 acute leukemias. […] 7; Detection; Luminescence; ViewLux plate reader (PerkinElmer). […] 1. Quantitative high-throughput screening (qHTS) of small molecule compounds was conducted on drug resistant SYKi MV4-11 cell line. […] 7. Luminescence was measured on a ViewLux plate reader (PerkinElmer).
Inconclusive results are not listed. Activity calls are given as the source filed them. Calls come from the whole dose curve; as a rule, active = well fitted cell-killing curve with a large enough effect; inconclusive = small, poorly fitted or top-dose-only effect, or effect the other way; inactive = no such curve, though single readings can be large or run the other way.
Possible outcomes: active, inactive

compound | label.value
CC(=O)OC1CC2C3(C)CCC(OC(=O)CC(=O)O)C(C)(C)C3CCC2(C)C2(C)CCC(C3(C)CCC(=O)O3)C12 (configuration not stated) | active
Cc1oc(=O)oc1COC(=O)[C@@H]1N2C(=O)[C@@H](NC(=O)[C@H](N)c3ccccc3)[C@H]2SC1(C)C | inactive
COc1cc(C)c(C(=O)Oc2cc(C)c(C(=O)Oc3cc(C)c(C(=O)NC(C)C(=O)O)c(O)c3)c(O[C@@H]3O[C@H](CO)[C@@H](O)[C@H](O)[C@H]3OC(C)=O)c2)c(OC)c1 (some centres not stated) | inactive
O=c1[nH]c(=O)n([C@H]2C[C@H](O)[C@@H](CO)O2)cc1Br | active
O=C(/C=C\c1ccc(O)cc1)N[C@@H](Cc1ccc(O)cc1)C(=O)O | inactive
COc1c2cc(c(O[C@@H]3O[C@H](CO)[C@@H](O)[C@H](O)[C@H]3O)c1OC)CCCCC(O)CCc1ccc(O)c-2c1 (some centres not stated) | inactive
O=C(NS(=O)(=O)c1ccc(Br)s1)c1ccc(Cl)cc1Cl | active

----------
# activity (max response) per record follows
- assay: Cellular viability qHTS for adrenocortical cancer (ACC) cell line SW-13 (AID 1963989);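 note: cells grown in serum-free medium with ITS supplement; % is set by controls: 0 for no effect and ±100 for the full control effect; nearly all actives have a fitted effect of over 65% in size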
- condition.info: SW-13 ACC cells viability, CellTiter-Glo, 48 h; stronger effect = lower value
Inconclusive results are not listed.

molecule | measurement.unit | activity (max response)
CC(=O)Nc1ccccc1 | % | -1.24
COc1ccc(C(=O)CC2(O)C(=O)Nc3c(Cl)ccc(Cl)c32)cc1 (stereo not given) | % | -14.9
CO[C@H]1O[C@@H]2O[C@@]3(C)CC[C@H]4[C@H](C)CC[C@@H]([C@H]1C)[C@@]24OO3 | % | 0.283
Nc1nc(NCCNc2ncc(-n3ccnc3)c(-c3ccc(Cl)cc3Cl)n2)ccc1[N+](=O)[O-] | % | -10
O=C(O)c1cc(O)c(O)c(O)c1 | % | -1.2

----------
- assay: Viability qHTS for spleen associated tyrosine kinase inhibitor (SYKi) drug resistant MV4-11 cells (AID 1963824); note: nearly all actives have a fitted effect of over 35% in size
- condition.info: SYKi-resistant MV4-11 viability, CellTiter-Glo, 72 h; series mostly up to 45 µM
Records with an inconclusive call do not appear. Active and inactive are the calls of the source. Calls come from the whole dose curve; as a rule, active = well fitted cell-killing curve with a large enough effect; inconclusive = small, poorly fitted or top-dose-only effect, or effect the other way; inactive = no such curve, though single readings can be large or run the other way.
Possible outcomes: Yes (active), No (inactive)

compound | label.value
COC(=O)CCc1ccc(OCC(O)CNC(C)C)cc1 (configuration not stated) | No
Cc1cc(Oc2ccc3nc(COc4ccc(CC5SC(=O)NC5=O)cc4)n(C)c3c2)cc(C)c1N (configuration not stated) | Yes
Cc1cc(Nc2ncnc3ccc(NC4=NC(C)(C)CO4)cc23)ccc1Oc1ccn2ncnc2c1 | Yes
CCN(CC)CCNC(=O)c1c(C)[nH]c(/C=C2/C(=O)Nc3ccc(-c4csc(-c5ccccc5)n4)cc32)c1C | Yes
O=C(NC1CC1)c1cccc(-c2ccc3c(NC(=O)C4CC4)n[nH]c3c2)c1 | Yes
CC1=CC(=O)[C@]2(O[C@@H]3O[C@@H](C)[C@H](O)[C@@H](O)[C@H]3OC(=O)/C=C/c3ccccc3)C=CO[C@@H](O[C@@H]3O[C@H](CO)[C@@H](O)[C@H](O)[C@H]3O)[C@H]12 | No
C=C1CC[C@H]2[C@@](C)(CCC(OC3OC(CO)C(O)C(O)C3O)[C@@]2(C)CO)C1C(=O)CC1=CCOC1=O (some centres not stated) | No
CC(C)[C@H]1CCC(CO)=C[C@@H]1/C=C(\CO)C(=O)O | No
C=CCc1ccc(O[C@@H]2O[C@H](CO)[C@@H](O)[C@H](O)[C@H]2O)c(O[C@@H]2O[C@H](CO)[C@@H](O)[C@H](O)[C@H]2O)c1 | No
COc1ccc(CNC(=O)c2cc(-c3cncc(Cl)c3)cnc2-c2ccccn2)nc1OC | No
COc1ccnc(CS(=O)c2nc3cc(OC(F)F)ccc3[nH]2)c1OC (configuration not stated) | No
C=CC1(C)C=C2CCC3C(C)(C)C(O[C@@H]4O[C@@H](CO)[C@H](O)[C@H]4O)CCC3(C)C2CC1O[C@@H]1O[C@H](C)[C@H](O)[C@H](O)[C@H]1O (some centres not stated) | No

----------
- assay: Viability qHTS for spleen associated tyrosine kinase inhibitor (SYKi) naive MV4-11 cells (AID 1963823); note: nearly all actives have a fitted effect of over 40% in size
- condition.info: MV4-11 AML viability, CellTiter-Glo luminescence, 72 h; series mostly up to 45 µM
Inconclusive results are not listed. The source made the active and inactive calls. Calls come from the whole dose curve; as a rule, active = well fitted cell-killing curve with a large enough effect; inconclusive = small, poorly fitted or top-dose-only effect, or effect the other way; inactive = no such curve, though single readings can be large or run the other way.
Possible outcomes: 1.0 = active, 0.0 = inactive

compound | label.value
CN1CCN(c2ccc3nc(-c4c(N)c5c(F)cccc5[nH]c4=O)[nH]c3c2)CC1 | 1.0
C#Cc1cccc(Nc2ncnc3cc(OCCOC)c(OCCO)cc23)c1 | 1.0
C/C(=C\CCC(C)CCO)C(=O)O[C@@H]1[C@@H](O)[C@H](OC2OC=C(C(=O)O)C3CCC(C)(O)C23)O[C@H](CO)[C@H]1O (stereo partly specified) | 0.0
Cc1ccc(S(=O)(=O)OCC(=O)Nc2ccc(C(=O)O)c(O)c2)cc1 | 0.0
COc1c(C)c(C(=O)c2ccc(N)c(C(=O)O)c2)n2ccccc12 | 0.0
COc1cc(CCc2cc(NC(=O)c3ccc(N4CC(C)NC(C)C4)cc3)n[nH]2)cc(OC)c1 (stereo unspecified) | 1.0
COc1ccc(Oc2c(Cl)cnn(-c3cc(C)cc(C)c3)c2=O)cc1 | 1.0
COc1cc(OC)c(C(=O)/C=C/c2ccccc2)c2c1C=CC(C)(C)O2 | 1.0
C=CC1(C)CC(O)C2(CCC3C(C)(C(=O)O)CCCC3(C)C2=O)C1 (stereo unspecified) | 0.0
C=CC(=O)N1CCc2ccc(-n3c(=O)ccc4cnc5ccc(-c6cnn(C)c6)cc5c43)cc21 | 1.0
COc1cc2ncnc(Nc3ccc(O)cc3)c2cc1OC | 1.0
COC(=O)Nc1ccc(-c2nc(N3CCOCC3)c3cnn(C4CCN(Cc5cccnc5)CC4)c3n2)cc1 | 1.0
COc1cc(O)cc(O[C@@H]2O[C@H](CO)[C@@H](O[C@@H]3OC[C@](O)(CO)[C@H]3O)[C@H](O)[C@H]2O)c1OC | 0.0
C=CC(C)(O)CC/C=C(/C)COC(=O)C(C)C1CCC(C)(C=C)O1 (stereo unspecified) | 0.0
Cc1ccc2cc(-c3c(C)ccc(C(=O)c4c(-c5ccccc5)n(C)n(-c5ccccc5)c4=O)c3N)ccc2n1 | 1.0
O=S(=O)(O)c1cc(I)c(O)c2ncccc12 | 1.0
COc1cc2c(cc1OC)CC(=O)N(CCCN(C)C[C@H]1Cc3cc(OC)c(OC)cc31)CC2 | 0.0
O=C(NO)c1cnc(N2C[C@H]3C[C@@H]2CN3c2cc(C(F)(F)F)ccn2)nc1 | 1.0
COc1cccc(OC)c1-c1cc(C(=O)NC2(C(=O)O)C3CC4CC(C3)CC2C4)nn1-c1ccnc2cc(Cl)ccc12 (stereo unspecified) | 1.0
C=C1CCC2C(C)(COC(C)=O)CCCC2(C)C1CCC(C)CC(=O)O (stereo unspecified) | 0.0
Cc1ccc(/C=N/n2c(-c3ccccc3)csc2=S)cc1 | 0.0
COc1cc(C[C@@]2(O)CO[C@@H](c3ccc(O[C@@H]4O[C@H](CO)[C@@H](O)[C@H](O)[C@H]4O)c(OC)c3)[C@H]2CO)ccc1O | 0.0
C[N+](C)(C)CCCCCCCCCC[N+](C)(C)C | 0.0
CCCC(=O)Nc1cccc(NC(=O)c2ccccc2Br)c1 | 0.0
Cc1oc(=O)oc1COC(=O)[C@@H]1N2C(=O)[C@@H](NC(=O)[C@H](N)c3ccccc3)[C@H]2SC1(C)C | 0.0
COc1ccc(CCN2CCC(Nc3nc4ccccc4n3Cc3ccc(F)cc3)CC2)cc1 | 1.0
CC1COC2(OC3CC4C5CC(O[C@@H]6O[C@H](C)[C@@H](O[C@@H]7O[C@@H](C)[C@H](O)[C@@H](O)[C@H]7O)[C@H](O)[C@H]6O)C6CC(O)CCC6(C)C5CCC4(C)C3C2C)C(O)C1 (stereo partly specified) | 0.0
C=C1C(O)CC2C(C(=O)O)=COC(O[C@@H]3O[C@H](COC(=O)/C=C/c4ccc(O)cc4)[C@@H](O)[C@H](O)[C@H]3O)C12 (stereo partly specified) | 0.0
CCCC(=O)OCOC(=O)C1=C(C)NC(C)=C(C(=O)OC)C1c1cccc(Cl)c1Cl (stereo unspecified) | 0.0
C[C@H](O)[C@H](O)[C@H]1CNc2nc(N)[nH]c(=O)c2N1 | 0.0
CCOc1ccc(-n2c([C@@H](C)N(Cc3cccnc3)C(=O)Cc3ccc(OC(F)(F)F)cc3)nc3ncccc3c2=O)cc1 | 1.0
